Recorded Endpoint: melting point

> print(dat)
                            substance.smiles  recorded.endpoint       measured
 1  CC(C)c1cc2n(Cc3ccccc3)cc(C(=O)O)c(=O)n2n1      melting point  180 to 185 °C
 2   O=C(O)c1cn(Cc2ccccc2)c2cc(C3CC3)nn2c1=O      melting point  210 to 215 °C
 3    CCOC(=O)c1c[nH]c2nc(NCc3ccccc3)nn2c1=O      melting point  275 to 278 °C
 4  CCOC(=O)c1c[nH]c2cc(C(=O)NCc3ccccc3)nn2c1=O      melting point  290 to 292 °C
 5  CCOC(=O)c1cn(CCc2ccccc2)c2cc(C(C)C)nn2c1=O      melting point  130 to 135 °C
 6  CCOC(=O)Cc1c[nH]c2nc(Nc3ccc(OC(C)C)cc3)nn2c1=O      melting point  235 to 240 °C
 7       O=C(O)Cc1c[nH]c2cc(C(F)(F)F)nn2c1=O      melting point  320 to 324 °C
 8  CCOC(=O)c1cn(Cc2ccccc2)c2cc(C3CC3)nn2c1=O      melting point  160 to 165 °C
 9  O=C(O)c1cn(CCc2ccc(O)cc2)c2cc(C3CC3)nn2c1=O      melting point  265 to 270 °C
10  CCOC(=O)c1cn(CCc2cccc(F)c2)c2cc(C3CC3)nn2c1=O      melting point  160 to 165 °C
11  CCOC(=O)c1cn(CCc2cccc(Cl)c2)c2cc(C3CC3)nn2c1=O      melting point  160 to 165 °C

From: patent US20160367557A1
